Test system: K4 kissing-loop RNA reporter;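 note: bound reporter read as fluorescence of individual clusters on recovered sequencing chips by microscopy, with normalized cluster intensities fitted with a binding model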
procedure-details: apparent KD of K4 kissing-loop reporter; higher = weaker reporter binding
settings: Eterna round: R107; input ligand: arginine 13.2 mM
# label = yes (1) if apparent KD of K4 kissing-loop reporter >= 200 nM else no (0)

[ask] Entry CUAGCCGGGAAAGGAUAUACACACGCACAUAACGAGUGAUGUUCGUUAAUACCAACUUGGUUAACUGUAGAAGGUUCAUCGUCAC [theeternabot_sameState_KL_FMN_B_36] : is its apparent KD of K4 kissing-loop reporter no less than 200 nM?
[reply] yes (1)

[ask] Hi team, for GAGAUAGAGGCGGCCGCCACUAGUGAUGUUAGUGAUGUUAGAUAGAGAAUAUAACAGGGAUUAGAUAGGACCGGGCCAGAUGGAG ['lljullin] , is the recorded apparent KD of K4 kissing-loop reporter at or above 200 nM?
[reply] no (0)

[ask] Check the entry AAGGUCACCACUACAGUGAUGUUGUGGGAGCAGGAUAUGCAGAAAUGCAGAAGGGCUCGCUCCCGGUGACCGAAUGAAACAUUCA [Omei KL FMN A SS A v5] : does apparent KD of K4 kissing-loop reporter equal or exceed 200 nM?
[reply] yes (1)

[ask] Say whether UUAGUGACAAGUCAGAUUCUGACAAUUGAUACCAGAUAGAAUUCUAUCCCUUGGCAGCAGUGAUGUUGUUGCAAAUAGUCACAUU [AK3 Exc Theophylline A] shows apparent KD of K4 kissing-loop reporter of 200 nM or more.
[reply] yes (1)

[ask] Say whether UGGAUAUAGUGAUGUUAUAUAGAGAGGGAUACCAGUUUAGAGAAGAACCCUUGGCAGCCUAAAGAAGUAUCAUUAGAGAAGAAUG [ExTheophyl.An] shows apparent KD of K4 kissing-loop reporter of 200 nM or more.
[reply] yes (1)

[ask] Record AAAAUUGCGGUCGAAAGAACUUCUUGCAUACGAGGACCGGUACGGCCGCCACUCGAGUCAAGUGAUGUUUGAUUUUCUAUUAUUA [JR_ExcTryptoA_Sub013] ; criterion: apparent KD of K4 kissing-loop reporter no lower than 200 nM. Met?
[reply] no (0)

[ask] Decide: is the reported value of apparent KD of K4 kissing-loop reporter for AUUAAUAACUGAGGAUAUCGUUUUACUGUAGUGAUGUUACAGAAAAUGCACAUUAUAAUUUCUAUUCGAGAAGGCAGAAUAAUUA [JR_ExcFMNB_Sub013] equal to or greater than 200 nM?
[reply] no (0)

[ask] Is it the case that "GCCUGGGCCCGAAGGAGCGCCGUGACAGGUUACUGCAUUGAGCAGUGAUGUUGCUCAAUCUGGCAGGUAGGUCGCGGGCCCAGGC" has apparent KD of K4 kissing-loop reporter reaching or exceeding 200 nM?
[reply] no (0)

[ask] Say whether CCUUCCCUUGAUAGUGAUGUUAUCAAGGACAAGGAUAUCAUCUCAAUGAGAAGGUGUCCUUGAUAACAUGGAGGUCUGAAACAGA [Omei KL FMN A Exc C v2] shows apparent KD of K4 kissing-loop reporter of 200 nM or more.
[reply] no (0)

[ask] # check: apparent KD of K4 kissing-loop reporter of AGAAUAAUAAAUUUGGAGUGAUGUUCCGGACGAGGACCGGUACGGCCGCCACUCGAAAGCAGUCUGCGAAAGCAGACUGCAAGGA [Tesla SS Tryp A 1] is greater than or equal to 200 nM
[reply] yes (1)

[ask] Confirm if apparent KD of K4 kissing-loop reporter reported for the sequence AUUUAUUCGUACUUUCAGUGAUGUUGAUAACGAGGACCGGUACGGCCGCCACUCGAUUUGGCGAUUUUGUAUUUUUUAUUCUAUA [JR_SSTryptoA_Sub010] is 200 nM or above.
[reply] yes (1)

----------
Tested on: MS2 coat protein
procedure-details: apparent KD of MS2 coat protein; higher = weaker reporter binding
settings: Eterna round: R107; input ligand: theophylline 20 uM
Hi there, I'd appreciate the recorded apparent KD of MS2 coat protein for every entry that follows.
Give just the number in nM; leave the unit off.

Case "UGUAUGGACUGAAGGAGCGGAAGAUACCAUGAGGAUCACCCAUGGAAUAAGGCGAAAGCCUUCCAGGUAGGUCGCAGUCCAUACU" , MS2 coat protein, apparent KD of MS2 coat protein recorded as 23.9

Reported MS2 coat protein apparent KD of MS2 coat protein for item AUAAAUAAUAAAUAUAAUAAAGUGGGUGAACGAGGACCGGUACGGCCGCCACUCGGACAUGAGGAUCACCCAUGUCCAUGUGAAA [AstrosExtTry#3] was 19.1

Entry GUUUUAUCAAAAGAUGAAACAGUGGGUGAACGAGGACCGGUACGGCCGCCACUCGGACAUGAGGAUCACCCAUGUCCAUGUGAAA [AstrosExyTryA#13] under MS2 coat protein had apparent KD of MS2 coat protein of 17.1

Sample GCCAUCGGCGGAAGCCGAUGGGAUACAGAAGGAGCGCGGAUUAACGCAGGUAGGUCGCUGGACAUGAGGAUCACCCAUGUAAUAG [SSAA #9] , system: MS2 coat protein. Its apparent KD of MS2 coat protein is 41.9

Entry CACUACAUGAGGAUCACCCAUGUCUUCCGACGAGGACCGGUACGGCCGCCACUCGAACCUCCAACUAAUACCUCAACCGUCUGAU [theeternabot_sameState_MS2_Trp_A_25] : apparent KD of MS2 coat protein on MS2 coat protein = 110

MS2 coat protein data for UGGUAGCCACACUUCAAACAUCGACAAGAUACCAGUUAAUCAACGAACCCUUGGCAGCUUCGUACAUGAGGAUCACCCAUGUGGA [theeternabot_exclusion_MS2_Theo_A_6] ; its apparent KD of MS2 coat protein: 24.2

Observed apparent KD of MS2 coat protein on MS2 coat protein, entry CCUAUGCAGUCGGCCGCCACUGUACAUGAGGAUCACCCAUGUUCCAAAAUAAAAGGAACUGAAAUCAGGACCGGGACUGUAUAGG [Ex Tryptophan B 1] , equals 37.2

Lab note: sequence GGUUACUCUACGGCCGCCACUGAUUAAUUAUAAUCCUGUACAUAAACAUGAGGAUCACCCAUGUACAGGACCGGGUAGUGUAACC [Tryptophan B 10] tested on MS2 coat protein; recorded apparent KD of MS2 coat protein was 46.2

Assay MS2 coat protein, sample CCGCACAUGAGGAUCACCCAUGUCCGGGUUCGAGGACCGGUACGGCCGCCACUCGGACAUGUGCGCCCUUCAUGCACUGUAUAAA [Macetius] , apparent KD of MS2 coat protein read: 158

# ACGCGCAGCAGAAGGAGCGUCUUAAUUCUACAUGAGGAUCACCCAUGUUUACAUUGGAUAUGACAGGUAGGUCGCUGGUGUGCGA [#06 Same State - Arginine B] with MS2 coat protein: apparent KD of MS2 coat protein is 18.1

Item: ACAUGAGGAUCACCCAUGUGCCGAGUUGAUACCAGACCCGCACUAGUCCCUUGGCAGCAACUACGUGUGGGACACCCAUGUUAAG [qaqmullin] | System: MS2 coat protein | apparent KD of MS2 coat protein: 85.5

Test item ACAUGAGGAUCACCCAUGUACAUAAGGGAAGGAGCGCGGUGGAACGCAGGUAGGUCGCCCAUAAUAACAAUAAAUAAAUUCAUGU [#04 Same State - Arginine A] ; MS2 coat protein; reported apparent KD of MS2 coat protein was 23.6

Recorded apparent KD of MS2 coat protein for GGGCGCUAUCCCGCGAGGGAUAGCGUUCGGCGAGGACCGGUACGGCCGCCACUCGAACGAGUGGGUACAUGAGGAUCACCCAUGU [Faa] on MS2 coat protein was 39.6

// returns apparent KD of MS2 coat protein for GAGGGUGAAUCUCUAGUCCGUUUGACGGAUACCAGCGAGAGGUAUCGCCCUUGGCAGCCGACGACAUGAGGAUCACCCAUGUUAA [#07 Exclusion-TheophyllineA] with MS2 coat protein; value = 42.6

// returns apparent KD of MS2 coat protein for CAGUCUCUAGCGGCCGCCACUGUUCUGCUGGUGCUGCUGAACGAACAUGAGGAUCACCCAUGUCUCAGGACCGGGCUUCAGACUC [theeternabot_sameState_MS2_Trp_B_44] with MS2 coat protein; value = 30.4

With MS2 coat protein as the test system, UAAACUACACAUGAGGAUCACCCAUGUGGCCGAGGACCGGUACGGCCGCCACUCGUGUGUUAAUAAAAGAACUGCAAAGUUCCUU [Aquen] showed apparent KD of MS2 coat protein of 416

// sequence GGGAUAUAGGCGGCCGCCACUGAUUUUCAUAUAUAUAUAACAUGAGGAUCACCCAUGUAGAUAUACAGGACCGGGCCUAUAUUUU [aaaD] , assay MS2 coat protein, apparent KD of MS2 coat protein value: 17.4

Per the reported MS2 coat protein data, CUUACACAUGAGGAUCACCCAUGUCAUGAUACCAGCCAAUACACUGGCCCUUGGCAGCAUCUCAGCCUCAGCUACAUUGACUGAC [theeternabot_sameState_MS2_Theo_A_2] has apparent KD of MS2 coat protein of 28.2

MS2 coat protein data for AAUAAGAUCCUCAUGUGAGUCGUACCAUAACGAGGACCGGUACGGCCGCCACUCGAACAUGAGGAUCACCCAUGUAGGUACGACA [M'-T'-T-MS2-T'' - Design 8] ; its apparent KD of MS2 coat protein: 320

Record GACCGAUUAUAGUGCGAUUCUCUUGUGGAAGGAGCGCAGAGGACUGCAGGUAGGUCGCCACAUGAGGAUCACCCAUGUCAGGAUA [Esxebiat] / MS2 coat protein, apparent KD of MS2 coat protein recorded as 89.6

Short answer on MS2 coat protein for ACAUGAGGAUCACCCAUGUGCAGAACGGAUACCAGCGUGCUGGUACGCCCUUGGCAGCCGGACAUGAGGAUCACCCAUGUGUGGA [Exclusion Theophylline A GF28] , apparent KD of MS2 coat protein: 55.7

Item AGCCACUCGAACAUGGGUGACGAGUGGCAACGAGGACCGGUACGGCCGCCACUCGAAUAAACAUGAGGAUCACCCAUGUACAAAU [T''-M'-T'-T-MS2 - Design 9] ; assay system MS2 coat protein; apparent KD of MS2 coat protein reported as 146

Summary line: AUGCACCUCGUCCAGGCAAUCUUUAGUGAUACCAGCUAACUCCUUGGCCCUUGGCAGCACAUGAGGAUCACCCAUGUGCGACAUC [Tidile] , MS2 coat protein, reported apparent KD of MS2 coat protein = 14.9
